Quick list: inhibition at 100 µM per entry.
# experimental.system: A2 receptors from rat striatal membranes (Rattus norvegicus, UniProt P30543)
# Construct: Rat cerebral cortical and striatal membranes were prepared; from tissue; host or cells: rat striatal membranes
# Sequence (P30543 whole entry): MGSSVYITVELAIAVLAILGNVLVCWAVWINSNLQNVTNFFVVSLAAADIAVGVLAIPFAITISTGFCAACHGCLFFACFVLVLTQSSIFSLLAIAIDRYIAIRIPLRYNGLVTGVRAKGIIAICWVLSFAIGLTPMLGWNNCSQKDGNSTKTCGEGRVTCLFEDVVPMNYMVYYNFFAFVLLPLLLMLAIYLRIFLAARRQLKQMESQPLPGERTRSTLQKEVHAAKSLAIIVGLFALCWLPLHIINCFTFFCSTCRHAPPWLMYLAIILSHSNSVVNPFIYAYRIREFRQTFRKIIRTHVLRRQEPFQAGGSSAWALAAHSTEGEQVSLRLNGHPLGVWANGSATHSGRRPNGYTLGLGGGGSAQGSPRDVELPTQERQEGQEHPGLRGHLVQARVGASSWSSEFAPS
# experimental.protocol: Radioligand binding at A2 (A2a) receptors, displacement of [3H]CGS 21680 (or [3H]NECA with 50 nM CPA) from rat striatal membranes
# assay.context: read-out: A2 percent displacement
property.measured: inhibition at 100 µM

> print(dat)
                                   compound     property.measured  assay.result
1  CC(C)(C)OC(=O)NCCNC(=O)[C@H]1O[C@@H](n2cnc3c(N)ncnc32)[C@H](O)[C@@H]1O [Compound 26]  inhibition at 100 µM            0%
2  OC[C@H]1O[C@@H](n2cnc3c(=S)[nH]cnc32)[C@H](O)[C@@H]1O [Compound 89, 6-thiopurine riboside, reference compound]  inhibition at 100 µM         33.6%
3  CCNC(=O)[C@H]1O[C@@H](n2cnc3c(=O)[nH]cnc32)[C@H](O)[C@@H]1O [Compound 91, inosine-5'-N-ethyluronamide]  inhibition at 100 µM         30.6%
4  Cn1cnc2c(=O)[nH]c(=O)n(C)c21 [Compound 107, 3,9-dimethylX, reference compound]  inhibition at 100 µM          4.2%
5  Nc1ncnc2c1ncn2[C@@H]1O[C@H](COP(=O)(O)O)[C@@H](O)[C@H]1O [Compound 78, adenosine-5'-monophosphate, reference compound]  inhibition at 100 µM         57.5%
6  Cn1cnc2[nH]c(=O)[nH]c(=O)c21 [Compound 101, 7-methylX, reference compound]  inhibition at 100 µM         37.7%
7  CNC(=O)[C@H]1O[C@@H](n2cnc3c(NCc4ccc(S(=O)(=O)O)cc4)ncnc32)[C@H](O)[C@@H]1O [Compound 53]  inhibition at 100 µM            0%
8  O=c1[nH]c(=O)c2[nH]cnc2[nH]1 [Compound 98, xanthine, reference compound]  inhibition at 100 µM         16.2%
9  Cn1c(=O)[nH]c(=O)c2[nH]cnc21 [Compound 100, 3-methylX, reference compound]  inhibition at 100 µM           38%

* * *

Measured Ki accompanies every entry in the list below.
# experimental.system: A1 receptors from rat brain membranes (Rattus norvegicus)
# Construct: Rat cerebral cortical and striatal membranes were prepared; from tissue; host or cells: rat brain (cerebral cortical) membranes
# Sequence (P25099 whole entry): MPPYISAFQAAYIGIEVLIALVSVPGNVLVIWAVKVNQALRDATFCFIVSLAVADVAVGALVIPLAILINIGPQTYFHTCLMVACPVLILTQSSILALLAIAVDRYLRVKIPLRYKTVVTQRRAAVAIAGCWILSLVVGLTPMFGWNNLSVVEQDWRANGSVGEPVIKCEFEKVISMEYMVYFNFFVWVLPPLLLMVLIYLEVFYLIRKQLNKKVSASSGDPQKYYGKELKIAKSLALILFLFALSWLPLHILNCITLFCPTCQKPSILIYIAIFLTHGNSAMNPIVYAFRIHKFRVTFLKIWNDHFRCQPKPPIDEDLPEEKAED
# experimental.protocol: biochemical
# Format: binding
# assay.context: Table 4, [3H]PIA, rat brain membranes; read-out: Ki (A1)
property.measured: Ki (µM)

> print(dat)
                                   molecule  assay.result
1  CCCCn1c(=O)c2c(ncn2[C@@H]2O[C@H](C(=O)OC)[C@@H](O)[C@H]2O)n(CCCC)c1=O [Compound 122]          3.72
2  CCCCn1c(=O)c2c(ncn2[C@@H]2O[C@H](CO)[C@@H](O)[C@H]2O)n(Cc2ccccc2)c1=O [Compound 121]          1.72
3  CCCCn1c(=O)n(Cc2ccccc2)c(=O)c2c1ncn2[C@@H]1O[C@H](CO)[C@@H](O)[C@H]1O [Compound 120]          2.19
4  Cn1c(=O)c2c(ncn2[C@@H]2O[C@H](CO)[C@@H](O)[C@H]2O)n(C)c1=O [Compound 117, theophylline-7-riboside, reference compound]            27

* * *

# experimental.system: A2 receptors from rat striatal membranes (Rattus norvegicus)
# Construct: Rat cerebral cortical and striatal membranes were prepared; from tissue; host or cells: rat striatal membranes
# experimental.protocol: Radioligand binding at A2 (A2a) receptors, displacement of [3H]CGS 21680 (or [3H]NECA with 50 nM CPA) from rat striatal membranes
# assay.context: Table 2, [3H]CGS 21680, rat striatal membranes; read-out: Ki (A2)
pKi: −log10 of the molar value.
Response key: MET means pKi >= 7; NOT MET means pKi < 7.

compound	assigned.label
CCNC(=O)[C@H]1O[C@@H](n2cnc3c(N)nc(NCCc4ccc(CCC(=O)NCCN)cc4)nc32)[C@H](O)[C@@H]1O [APEC, reference compound]	MET
Nc1ccc(CCNc2ncnc3c2ncn3[C@@H]2O[C@H](CO)[C@@H](O)[C@H]2O)cc1 [APNEA, N^6-2-(4-aminophenyl)ethyladenosine, reference compound]	NOT MET
CNC(=O)[C@H]1O[C@@H](n2cnc3c(NCc4cccc(I)c4)nc(NC)nc32)[C@H](O)[C@@H]1O	NOT MET
CNC(=O)[C@H]1O[C@@H](n2cnc3c(NCc4cccc(I)c4)nc(SC)nc32)[C@H](O)[C@@H]1O	NOT MET

* * *

# experimental.system: A2 receptors from rat striatal membranes (Rattus norvegicus, UniProt P30543)
# Construct: Rat cerebral cortical and striatal membranes were prepared; from tissue; host or cells: rat striatal membranes
# experimental.protocol: Radioligand binding at A2 (A2a) receptors, displacement of [3H]CGS 21680 (or [3H]NECA with 50 nM CPA) from rat striatal membranes
# assay.context: rat striatal membranes, displacement of [3H]CGS 21680 (or [3H]NECA + 50 nM CPA); read-out: A2 affinity Ki
pKi: −log10 of the molar value.
property.measured: pKi

> print(dat)
                                    compound  assay.result
 1  CN(C)c1ncnc2c1ncn2[C@@H]1O[C@H](CO)[C@@H](O)[C@H]1O [Compound 9, N^6 -dimethyladenosine, reference compound]          4.54
 2  CCCCn1c(=O)c2[nH]cnc2n(CCCC)c1=O [Compound 109, 1,3-di-n-butyl-xanthine, reference compound]          5.53
 3  NC(=O)[C@H]1O[C@@H](n2cnc3c(NCc4ccccc4)ncnc32)[C@H](O)[C@@H]1O          6.37
 4  CNC(=O)[C@H]1O[C@@H](n2cnc3c(NCc4ccc(Cl)cc4)ncnc32)[C@H](O)[C@@H]1O          5.56
 5  CCNC(=O)[C@H]1O[C@@H](n2cnc3c(NCc4cccc(I)c4)ncnc32)[C@H](O)[C@@H]1O          8.14
 6  CCNC(=O)[C@H]1O[C@@H](n2cnc3c(NCc4ccc(OC)cc4)ncnc32)[C@H](O)[C@@H]1O          6.22
 7  Nc1nc2c(ncn2[C@@H]2O[C@H](CO)[C@@H](O)[C@H]2O)c(=O)[nH]1 [Compound 86, guanosine, reference compound]          5.07
 8  CCNC(=O)[C@H]1O[C@@H](n2cnc3c(N[C@H](C)c4ccccc4)ncnc32)[C@H](O)[C@@H]1O [Compound 55, N^6 -(R-phenylethyl)-NECA]          6.59
 9  CCCn1c(=O)[nH]c2nc(C3CCCC3)[nH]c2c1=O [Compound 129, 8-cyclopentyl-1-propylX, reference compound]          4.31
10  CCNC(=O)[C@H]1O[C@@H](n2cnc3c(=N)n(Cc4ccccc4[N+](=O)[O-])cnc32)[C@H](O)[C@@H]1O          7.08
11  CNC(=O)[C@H]1O[C@@H](n2cnc3c(NCc4cccc(N)c4)ncnc32)[C@H](O)[C@@H]1O          6.10
12  CCNC(=O)[C@H]1O[C@@H](n2cnc3c(N(C)C)ncnc32)[C@H](O)[C@@H]1O [Compound 29, N^6 -dimethylNECA, reference compound]          4.87
13  CNC(=O)[C@H]1O[C@@H](n2cnc3c(NCc4cccc(C(F)(F)F)c4)ncnc32)[C@H](O)[C@@H]1O          6.24

* * *

# experimental.system: A2 receptors from rat striatal membranes (Rattus norvegicus, UniProt P30543)
# Construct: Rat cerebral cortical and striatal membranes were prepared; from tissue; host or cells: rat striatal membranes
# experimental.protocol: Radioligand binding at A2 (A2a) receptors, displacement of [3H]CGS 21680 (or [3H]NECA with 50 nM CPA) from rat striatal membranes
property.measured: Ki (µM)

> print(dat)
                         chemical.structure                       experimental.system  assay.result
1  CNC(=O)[C@H]1O[C@@H](n2cnc3c(NCc4cccc(N=C=S)c4)ncnc32)[C@H](O)[C@@H]1O  A2 receptors from rat striatal membranes (Rattus norvegicus, UniProt P30543)         0.272

* * *

# experimental.system: A2 receptors from rat striatal membranes (Rattus norvegicus)
# Construct: Rat cerebral cortical and striatal membranes were prepared; from tissue; host or cells: rat striatal membranes
# experimental.protocol: Radioligand binding at A2 (A2a) receptors, displacement of [3H]CGS 21680 (or [3H]NECA with 50 nM CPA) from rat striatal membranes
# assay.context: at 100 μM; read-out: A2 percent displacement
property.measured: inhibition at 100 µM (%)

compound	experimental.system	assay.result
Nc1ncnc2c1ncn2[C@]1(CO)O[C@H](CO)[C@@H](O)[C@H]1O [Compound 80, β-D-psicofuranosyladenine, reference compound]	A2 receptors from rat striatal membranes (Rattus norvegicus)	51.5
CO[C@@H]1[C@H](O)[C@@H](CO)O[C@H]1n1cnc2c(N)ncnc21 [Compound 71, 2'-O-methyladenosine, reference compound]	A2 receptors from rat striatal membranes (Rattus norvegicus)	49
CCCCCC[C@H]([C@H](C)O)n1cnc2c(N)ncnc21 (relative stereo) [Compound 96, erythro-9-(2-hydroxy-3-nonyl)adenine, reference compound]	A2 receptors from rat striatal membranes (Rattus norvegicus)	59.6
Nc1ncnc2c1ncn2[C@@H]1O[C@H](CO)C[C@H]1O [Compound 72, 3'-deoxyadenosine, reference compound]	A2 receptors from rat striatal membranes (Rattus norvegicus)	26.3
Nc1ncnc2c1ncn2[C@H]1C[C@H](O)[C@@H](CO)O1 [Compound 70, 2'-deoxyadenosine, reference compound]	A2 receptors from rat striatal membranes (Rattus norvegicus)	38.9
Nc1nc2c(ncn2[C@@H]2O[C@H](CO)[C@@H](O)[C@H]2O)c(=S)[nH]1 [Compound 88, 6-thioguanosine, reference compound]	A2 receptors from rat striatal membranes (Rattus norvegicus)	27.7
O=c1[nH]c(=O)c2ncn([C@@H]3O[C@H](CO)[C@@H](O)[C@H]3O)c2[nH]1 [Compound 81, xanthosine, reference compound]	A2 receptors from rat striatal membranes (Rattus norvegicus)	8.5

Each recorded value in this set is attributed to patent US5773423A.
